Source: paper PMC5540273

- System: MEK2;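 note: kd values determined as follow-up on hits from a single-replicate KINOMEscan panel screen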
- Construct: gene MAP2K2

[
  {
    "smiles": "CCc1ccc(-c2ccc3c(c2)-c2n[nH]cc2S(=O)(=O)N3C)cc1",
    "Kd": "> 10 µM"
  }
]

---

%Inh values by entry
- Tested on: ITK
- conditions: concentration: 1 μM, replicates: in singlicate; n = 1

[
  {
    "compound": "COc1ccc(Nc2nccc(-c3ccc(NC(=O)c4cc5cc(F)ccc5[nH]4)cc3)n2)cc1",
    "%Inh": "0%"
  },
  {
    "compound": "c1ccc(-c2ccnc3[nH]ccc23)cc1",
    "%Inh": "18%"
  },
  {
    "compound": "CCCCc1nn2ncccc2c1-c1ccnc(NC2CC2)n1",
    "%Inh": "0%"
  },
  {
    "compound": "CNCc1ccc2nc(NC(=O)c3ccc(C(C)(C)C)cc3)cn2c1",
    "%Inh": "0%"
  },
  {
    "compound": "COc1ccc(Nc2nccc(N3CCC(NC(=O)C(C)c4ccc(Cl)cc4)CC3)n2)cc1 (centres unmarked)",
    "%Inh": "22%"
  }
]

---

- Tested on: AKT3
- conditions: concentration: 1 μM, replicates: in singlicate; n = 1
measured.property: %Inh (%)

[
  {
    "molecule": "O=C(Nc1n[nH]c2cc(-c3ccsc3)ccc12)C1CC1 [SB-732932]",
    "tested.on": "AKT3",
    "value": 9
  },
  {
    "molecule": "COc1ccc2cc(-c3nc(-c4ccccc4C(C)C)[nH]c3-c3ccncc3)ccc2c1 [SB-660566]",
    "tested.on": "AKT3",
    "value": 0
  },
  {
    "molecule": "O=C(Nc1n[nH]c2nc(-c3cccs3)c(Br)cc12)C1CC1 [SB-735297]",
    "tested.on": "AKT3",
    "value": 0
  },
  {
    "molecule": "Nc1ncnc2occ(-c3ccc4c(c3)CCN4C(=O)Cc3cc(F)ccc3F)c12 [GSK2645446]",
    "tested.on": "AKT3",
    "value": 0
  },
  {
    "molecule": "Cc1ccc(-c2nc(Nc3ccncc3)c3ccccc3n2)s1 [GSK189015]",
    "tested.on": "AKT3",
    "value": 3
  },
  {
    "molecule": "COc1nccc(-c2c(-c3ccc(F)cc3)ncn2CCCN2CCOCC2)n1 [SB-282852]",
    "tested.on": "AKT3",
    "value": 3
  },
  {
    "molecule": "CNc1nc(-c2ccc3c(N)n[nH]c3c2)cc(N2C[C@@H](C(=O)Nc3ccccc3)CC[C@H]2C)n1 [GSK2298859]",
    "tested.on": "AKT3",
    "value": 0
  },
  {
    "molecule": "COc1cccc(NC(=O)Nc2ccc(C)c(-c3ccc(C(=O)Nc4ccncc4)cc3)c2)c1 [GSK1398474]",
    "tested.on": "AKT3",
    "value": 0
  },
  {
    "molecule": "CC[C@@H]1CO[C@H](C(=O)Nc2ccccc2)CN1c1cc(-c2ccc3c(N)n[nH]c3c2)nc(NC)n1 [GSK2376236]",
    "tested.on": "AKT3",
    "value": 0
  }
]
